Attribute: protein stability index
B1: PBXIP1 (parent)
chain: LPVETLGPASRMDPESERALQAPH

variants of: B1; experiment: protein stability index of a GFP-peptide fusion (GPS, HEK-293T) (PSI 1-6); higher = more stable; conditions: c terminus: a fixed tail appended;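 also: lentivirally expressed fusions sorted by FACS into six bins by GFP to DsRed ratio, PSI derived from sequencing read proportions per bin multiplied by bin number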
API note: the answer field is a bare number with no unit suffix.

[
  {
    "CHAIN": "LPVETLGFASRMDPESERALQAPH [P8F]",
    "protein stability index": 4.19
  },
  {
    "CHAIN": "LPVETFGPASRMDPESERALQAPH [L6F]",
    "protein stability index": 4.81
  },
  {
    "CHAIN": "LPVETLGPASRMDPESERTLQAPH [A19T]",
    "protein stability index": 4.63
  }
]

# query: protein stability index of entry LPVETLGPASSMDPESERALQAPH [R11S]
4.01

Provenance of the data: the supplement of paper PMC10567573
